Hey, just so you know, these numbers are from paper PMC9173638.

test system: PepF; assay: Screening of sXIP variants for susceptibility to PepF degradation; type: in vitro ADME, Streptococcus salivarius HSISS4; conditions: peptide 500 nM pre-incubated with PepF 7 nM, 4 h, 37°C vs without PepF; PcomS-luxAB ΔcomS reporter luminescence; mean of technical triplicates
No end group written: not given here.
Give percentage of signal loss for every item shown.
Write the number in % without appending the unit.

Ask: Give its percentage of signal loss value. Item: LPWFAGCL [LPWFAGCL]
Reply: 97.3022

Ask: Dear colleague, I am looking for the recorded percentage of signal loss of the following sequence: LPYYAGCL [LPYYAGCL]
Reply: 89.6196

Ask: What percentage of signal loss value was documented for this sequence, LAYFAGCL [LAYFAGCL] ?
Reply: 40.0979

Ask: Need percentage of signal loss, item LPYFAGAL [LPYFAGAL]
Reply: 99.8977
